assay: NCI Yeast Anticancer Drug Screen. Data for the rad50 strain (AID 155);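 also: 0% = growth of vehicle-only cultures of the same strain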; conditions: S. cerevisiae rad50 strain growth inhibition; at 50.0 µM; active compounds read high
The panel holds about 79,000 compounds, 15% with a hit somewhere; the sample as a whole holds those more often.
Assign growth inhibition to each entry below.
Value expressed in %; do not type the unit.

Inquiry: Name the recorded growth inhibition of the item CCN(CC)CCCO in your answer.
Reply text: 27.8

Inquiry: Name the recorded growth inhibition of the item COC(=O)N/N=C(\C)C(CN1CCCCC1)C(C1=C(O)c2ccccc2OC1)c1ccccc1 (stereo not drawn) in your answer.
Reply text: 6.15

Inquiry: Name the recorded growth inhibition of the item CSc1n[n+](-c2ccccc2)cs1 in your answer.
Reply text: 6.3

Inquiry: Name the recorded growth inhibition of the item FC(F)(F)c1nc2ccccc2[nH]1 in your answer.
Reply text: 16.9

Inquiry: Name the recorded growth inhibition of the item Nc1nc(=O)n(C2CC(O)C(CO)O2)cc1I (stereo not drawn) in your answer.
Reply text: -43.3

Inquiry: Name the recorded growth inhibition of the item O=C(Nc1ccccc1O)c1ccc(Cl)c(Cl)c1 in your answer.
Reply text: -7.6

Inquiry: Name the recorded growth inhibition of the item Cc1cccc(C)c1N1C(=O)C2c3[nH]c4ccccc4c3C3CCC(C(C)(C)C)CC3C2C1=O (stereo not drawn) in your answer.
Reply text: 37.7

Inquiry: Name the recorded growth inhibition of the item COc1cc(/C=C/C(=O)O)cc(OC)c1O in your answer.
Reply text: 5.65

Inquiry: Name the recorded growth inhibition of the item C[C@@H]1CN[C@@H](C)CN1 in your answer.
Reply text: -35.2

Inquiry: Name the recorded growth inhibition of the item O=C(c1ccc(Cl)cc1Cl)N1CCCCC1 in your answer.
Reply text: 1.45

Inquiry: Name the recorded growth inhibition of the item Cc1nc2ccccc2nc1C1=C(O)c2ccccc2CC1=O in your answer.
Reply text: 0.85

Inquiry: Name the recorded growth inhibition of the item O=C1C(=O)c2ccccc2C(O)=C1Br in your answer.
Reply text: 27.9

Inquiry: Name the recorded growth inhibition of the item CCN(CCO)CC(=O)c1cc(Cl)ccc1OC in your answer.
Reply text: -3.85
